test.protocol: qHTS profiling for inhibitors of Plasmodium falciparum proliferation (AID 504749); further: nearly all actives have a fitted effect of over 60% in size;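 on activity, negative = inhibition: 0% = DMSO vehicle and full inhibition = artemisinin control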
setup.conditions: P. falciparum in erythrocytes, SYBR Green DNA, 72 h; at 12.8 µM (top of the series); parasite line A
Records with an inconclusive call do not appear.
readout.type: activity, negative = inhibition (%)
Respond numerically; units are % and should not be typed.

Record excerpt, results attached:
{"structure.smiles.string": "CC[N+](C)(C)c1cccc(O)c1", "activity, negative = inhibition, %": 14.2}
{"structure.smiles.string": "CC(C)(Oc1ccc(CCNC(=O)c2ccc(Cl)cc2)cc1)C(=O)O", "activity, negative = inhibition, %": -1.93}
{"structure.smiles.string": "CCN(CC)CCNC(=O)c1cc(S(C)(=O)=O)ccc1OC", "activity, negative = inhibition, %": 11.8}

Entry "CCCCNc1ccc(C(=O)OCCN(C)C)cc1" ; activity, negative = inhibition = 20

----------
measurement.target: Cytochrome P450 2D6 (Homo sapiens) (UniProt P10635)
Sequence (P10635 whole entry, looked up): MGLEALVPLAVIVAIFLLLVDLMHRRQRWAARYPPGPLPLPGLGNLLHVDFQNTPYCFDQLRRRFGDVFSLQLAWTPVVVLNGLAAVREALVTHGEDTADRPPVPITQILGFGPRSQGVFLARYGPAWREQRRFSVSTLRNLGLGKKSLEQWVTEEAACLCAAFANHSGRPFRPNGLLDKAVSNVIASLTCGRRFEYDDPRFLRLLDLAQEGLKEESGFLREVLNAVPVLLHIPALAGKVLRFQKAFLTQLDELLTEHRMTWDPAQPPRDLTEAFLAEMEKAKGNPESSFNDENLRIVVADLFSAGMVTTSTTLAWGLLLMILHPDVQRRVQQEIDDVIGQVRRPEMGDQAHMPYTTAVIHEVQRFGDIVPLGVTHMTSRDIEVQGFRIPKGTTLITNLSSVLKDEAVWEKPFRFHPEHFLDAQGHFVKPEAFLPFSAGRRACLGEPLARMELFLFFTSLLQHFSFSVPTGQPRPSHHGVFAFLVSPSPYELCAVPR
test.protocol: Cytochrome P450 family 2 subfamily D member 6 (CYP2D6) small molecule antagonists: luciferase biochemical (cell-free) qHTS assay (AID 1645840); further: nearly all actives have a fitted effect of over 55% in size
setup.conditions: P450-Glo CYP2D6 enzyme, luciferin luminescence, 1 h; series mostly up to 57.4 µM
Results filed as inconclusive are left out. The source made the active and inactive calls. Calls follow the shape of the dose curve; as a rule, active = well fitted inhibition curve with a large enough effect in the repeat runs; inconclusive = weak or mixed curves; inactive = flat fitted curve, though single readings scatter.
A correct response names exactly one class from class 1 = active, class 0 = inactive

{"compound": "CC(C)[N+](C)(CCOC(=O)C1c2ccccc2Oc2ccccc21)C(C)C", "category.label": "class 1"}
{"compound": "COc1cc(Cc2cnc(N)nc2N)cc(OC)c1OC", "category.label": "class 0"}
{"compound": "CN(C)[C@@H]1C(=O)C(C(N)=O)=C(O)[C@@]2(O)C(=O)C3=C(O)c4c(O)ccc(Cl)c4[C@@H](O)[C@H]3C[C@@H]12", "category.label": "class 0"}
{"compound": "CN(C)CC/C=C1\\c2ccccc2COc2ccccc21", "category.label": "class 1"}
{"compound": "CCCC(C(=O)OCCN(CC)CC)(c1ccccc1)c1ccccc1", "category.label": "class 1"}

What call does the record list for "CCCN1C[C@H](CSC)C[C@@H]2c3cccc4[nH]cc(c34)C[C@H]21" ?
class 1

What was the test verdict on "CC1=C(C)C(=O)C(CCCCC#CCCCC#CCO)=C(C)C1=O" ?
class 1

Per the records of this test, what outcome belongs to "CN(C(=O)CCCOc1ccc2[nH]c(=O)ccc2c1)C1CCCCC1" ?
class 0

Please let me know the test result on file for "CC1=NS(=O)(=O)c2cc(Cl)ccc2N1" .
class 0

Record request — test call for NC1=NCC2c3ccccc3Cc3ccccc3N12 (centres undefined)
class 1

Recorded call for "c1cnc(N2CCN(Cc3ccc4c(c3)OCO4)CC2)nc1" ?
class 1

# lookup: test call for "CCN(CC)CCCN(c1ccccc1)C1Cc2ccccc2C1"
class 1

# outcome recorded in this test, key = "Cc1ccc(=O)n(-c2ccccc2)c1"
class 0

I would be grateful if you could indicate the recorded call for "O=C(CCNNC(=O)c1ccncc1)NCc1ccccc1" .
class 1

What call does the record list for "FC(F)(F)c1ccccc1-n1ccnc1" ?
class 1

Fill in: this test's call for "C[C@]12C=CC(=O)C=C1CC[C@H]1[C@@H]3C[C@@H](O)[C@](O)(C(=O)CO)[C@@]3(C)C[C@H](O)[C@@]12F" is ___
class 0

Test call, this compound: CCOC(=O)C1=C(C)NC(C)=C(C(=O)OC)C1c1cccc([N+](=O)[O-])c1 (centres undefined)
class 1

Hello, I am checking results. What call was entered for "CCCCCCCC/C=C\CCCCCCCC(=O)NCc1ccc(O)c(OC)c1" ?
class 0

----------
System: SC27B
test.protocol: qHTS profiling for inhibitors of Plasmodium falciparum proliferation (AID 504749); further: nearly all actives have a fitted effect of over 60% in size; further: potency means the concentration at half of the fitted maximal effect
setup.conditions: P. falciparum in erythrocytes, SYBR Green DNA, 72 h; series mostly up to 28.7 µM
Records with an inconclusive call do not appear. Activity calls are given as the source filed them. Calls follow the shape of the dose curve; as a rule, active = well fitted inhibition curve with a large enough effect; inconclusive = small, poorly fitted or top-dose-only effect; inactive = flat fitted curve, though single readings scatter.
readout.type: Potency

Consider the following illustrative entries.
{"compound": "CC(C)NNC(=O)c1ccncc1", "Potency": "inactive"}
{"compound": "CC(=O)Nc1nnc(S(N)(=O)=O)s1", "Potency": "inactive"}
{"compound": "CCN1CCc2nc(N)oc2CC1", "Potency": "inactive"}
{"compound": "CCN(CC)CCNC(=O)c1cc(S(C)(=O)=O)ccc1OC", "Potency": "inactive"}
{"compound": "CN(C)C(=O)Oc1ccc[n+](C)c1", "Potency": "inactive"}
{"compound": "O=C(CCNNC(=O)c1ccncc1)NCc1ccccc1", "Potency": "inactive"}
{"compound": "COC(=O)C1=C(C)NC(C)=C(C(=O)OC(C)(C)CN(C)CCC(c2ccccc2)c2ccccc2)C1c1cccc([N+](=O)[O-])c1 (configuration not stated)", "Potency": "2.24 µM (active)"}
{"compound": "O=C1NCN(c2ccccc2)C12CCN(CCCC(c1ccc(F)cc1)c1ccc(F)cc1)CC2", "Potency": "8.91 µM (active)"}
{"compound": "CCCCNc1ccc(C(=O)OCCN(C)C)cc1", "Potency": "inactive"}
{"compound": "CCN1CCC[C@H]1CNC(=O)c1c(O)c(Cl)cc(Cl)c1OC", "Potency": "inactive"}

Per the record, NC(Cc1ccc(Cl)cc1)C(=O)O (configuration not stated) has Potency of inactive

Noted for "CCn1cc(C(=O)O)c(=O)c2cc3c(cc21)OCO3" : its Potency reads inactive

----------
System: CP268
test.protocol: qHTS profiling for inhibitors of Plasmodium falciparum proliferation (AID 504749); further: nearly all actives have a fitted effect of over 60% in size
setup.conditions: P. falciparum in erythrocytes, SYBR Green DNA, 72 h; series mostly up to 28.7 µM
Inconclusive results are not listed. Calls of active or inactive are those of the source. Calls follow the shape of the dose curve; as a rule, active = well fitted inhibition curve with a large enough effect; inconclusive = small, poorly fitted or top-dose-only effect; inactive = flat fitted curve, though single readings scatter.
Valid outcomes are listed here; reply with one: true (active), false (inactive)

{"compound": "NS(=O)(=O)c1cc2c(cc1Cl)NC(C1CC3C=CC1C3)NS2(=O)=O (stereo unspecified)", "measurement.target": "CP268", "category.label": "false"}

What call does the record list for "COCC(=O)O[C@]1(CCN(C)CCCc2nc3ccccc3[nH]2)CCc2cc(F)ccc2[C@@H]1C(C)C" ?
true

Can you look up the reported call for "CCCCCCCC/C=C\CCCCCCCC(=O)NCc1ccc(O)c(OC)c1" for me?
false

Please share the test call associated with "Cc1cc(C)c(/C=C2\C(=O)Nc3ccccc32)[nH]1" .
false

Lab log entry: "CCN(CC)CCCN(c1ccccc1)C1Cc2ccccc2C1" — outcome as called in the assay?
true

In this assay, the call recorded for "CC(=O)[C@]1(O)Cc2c(O)c3c(c(O)c2[C@@H](O[C@H]2C[C@H](N)[C@H](O)[C@H](C)O2)C1)C(=O)c1ccccc1C3=O" was what?
true

Which outcome was assigned to CCN(Cc1ccncc1)C(=O)C(CO)c1ccccc1 (stereo unspecified) in this test?
false

Could you kindly confirm the outcome this assay logged for "C#CCN(C)CCCOc1ccc(Cl)cc1Cl" ?
false

----------
Tested on: PC26
test.protocol: qHTS profiling for inhibitors of Plasmodium falciparum proliferation (AID 504749); further: nearly all actives have a fitted effect of over 60% in size
setup.conditions: P. falciparum in erythrocytes, SYBR Green DNA, 72 h; series mostly up to 28.7 µM
Records with an inconclusive call do not appear. The source made the active and inactive calls. The call rests on the fitted dose curve; in most records, active means well fitted inhibition curve with a large enough effect; inconclusive means small, poorly fitted or top-dose-only effect; inactive means flat fitted curve, though single readings scatter.
Log the outcome using a class from active, inactive

{"compound": "CN(C)C/C=C(/c1ccc(Br)cc1)c1cccnc1", "category.label": "inactive"}
{"compound": "CN1C[C@H](C(=O)N[C@]2(C)O[C@@]3(O)[C@@H]4CCCN4C(=O)[C@H](Cc4ccccc4)N3C2=O)C[C@@H]2c3cccc4[nH]cc(c34)C[C@H]21", "category.label": "active"}
{"compound": "COC(=O)[C@@H](N)Cc1ccc(O)c(O)c1", "category.label": "inactive"}
{"compound": "OCCN1CCN(CC/C=C2/c3ccccc3Sc3ccc(C(F)(F)F)cc32)CC1", "category.label": "active"}
{"compound": "Cc1nc2ccccn2c(=O)c1CCN1CCC(C(=O)c2ccc(F)cc2)CC1", "category.label": "inactive"}

Outcome? "NC(N)=NC(=O)Cc1c(Cl)cccc1Cl"
active

Dear all, I need the recorded test outcome for "Cc1ccc(S(=O)(=O)NC(=O)NN2CCCCCC2)cc1" , thank you.
inactive

Check the results log: what was the call for "CCN(CC)CCOCCOC(=O)C1(c2ccccc2)CCCC1" ?
active

Can you look up the reported call for COC(=O)C1=C(C)NC(C)=C(C(=O)OC(C)(C)CN(C)CCC(c2ccccc2)c2ccccc2)C1c1cccc([N+](=O)[O-])c1 (stereo not given) for me?
active

Fill in: this test's call for "CC(C)[N+](C)(CCOC(=O)C1c2ccccc2Oc2ccccc21)C(C)C" is ___
inactive

----------
System: TAB109
test.protocol: qHTS profiling for inhibitors of Plasmodium falciparum proliferation (AID 504749); further: nearly all actives have a fitted effect of over 60% in size
setup.conditions: P. falciparum in erythrocytes, SYBR Green DNA, 72 h; series mostly up to 28.7 µM
Results filed as inconclusive are left out. The source made the active and inactive calls. Calls follow the shape of the dose curve; as a rule, active = well fitted inhibition curve with a large enough effect; inconclusive = small, poorly fitted or top-dose-only effect; inactive = flat fitted curve, though single readings scatter.
Response enum: active, inactive

Solved cases below.
{"molecule": "CNC1(C)C2CCC(C2)C1(C)C (stereo unspecified)", "category.label": "inactive"}
{"molecule": "CC(N=C(NC#N)Nc1ccncc1)C(C)(C)C (stereo unspecified)", "category.label": "inactive"}
{"molecule": "COC(=O)C1=C(C)NC(C)=C(C(=O)OC(C)(C)CN(C)CCC(c2ccccc2)c2ccccc2)C1c1cccc([N+](=O)[O-])c1 (stereo unspecified)", "category.label": "active"}
{"molecule": "CCCCOCCOCCOCc1cc2c(cc1CCC)OCO2", "category.label": "inactive"}
{"molecule": "FC(F)(F)c1ccccc1-n1ccnc1", "category.label": "inactive"}

Attention now shifts to the item below.
# fetch the recorded call for "c1cnc(N2CCN(Cc3ccc4c(c3)OCO4)CC2)nc1" here
inactive
